Tgt: F protein of wild type RSV A/Long (respiratory syncytial virus strain …, UniProt P12568 26-574)
Sequence (P12568 26-574): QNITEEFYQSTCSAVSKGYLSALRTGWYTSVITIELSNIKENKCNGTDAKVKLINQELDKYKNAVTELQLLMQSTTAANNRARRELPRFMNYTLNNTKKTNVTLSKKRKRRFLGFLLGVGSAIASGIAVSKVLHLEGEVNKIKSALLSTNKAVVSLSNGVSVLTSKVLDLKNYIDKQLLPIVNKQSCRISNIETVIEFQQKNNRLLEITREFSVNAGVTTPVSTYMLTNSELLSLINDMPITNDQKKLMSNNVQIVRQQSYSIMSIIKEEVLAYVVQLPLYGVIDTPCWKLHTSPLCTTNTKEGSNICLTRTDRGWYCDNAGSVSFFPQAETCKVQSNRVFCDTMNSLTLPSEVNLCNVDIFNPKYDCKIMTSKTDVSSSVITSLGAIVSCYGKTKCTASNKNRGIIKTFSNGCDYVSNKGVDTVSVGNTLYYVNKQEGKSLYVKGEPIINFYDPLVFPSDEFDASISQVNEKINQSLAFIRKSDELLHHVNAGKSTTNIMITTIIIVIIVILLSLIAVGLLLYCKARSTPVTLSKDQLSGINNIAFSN
Experiment notes: cell-based or functional assay
Readout: Fold Difference (Control IC50) (fold)
# unit: fold | format: bare number

Binder	Fold Difference (Control IC50), fold
P12f2 (monoclonal antibody) (antibody, V domains shown, mAb with framework and constant regions of SYNAGIS; also called Pf12) VH: QVTLRESGPALVKPTQTLTLTCTFSGFSLSTPGMSVGWIRQPPGKALEWLADIWWDDKKHYNPSLKDRLTISKDTSKNQVVLKVTNMDPADTATYYCARDMIFNFYFDVWGAGTTVTVSS VL: DIQMTQSPSTLSASVGDRVTITCSLSSRVGYMHWYQQKPGKAPKLLIYDTFYLSSGVPSRFSGSGSGTEFTLTISSLQPDDFATYYCFQGSGYPFTFGGGTKVEIK	24

Ask: Which Fold Difference (Control IC50) value is on record for A1e9 (monoclonal antibody) (antibody, V domains shown, mAb with framework and constant regions of SYNAGIS; also called Ale9) VH: QVTLRESGPALVKPTQTLTLTCTFSGFSLSTPGMSVGWIRQPPGKALEWLADIWWDGKKHYNPSLKDRLTISKDTSKNQVVLKVTNMDPADTATYYCARDMIFNWYFDVWGQGTTVTVSS VL: DIQMTQSPSTLSASVGDRVTITCSLSSRVGYMHWYQQKPGKAPKLLIYDTFKLSSGVPSRFSGSGSGTEFTLTISSLQPDDFATYYCFQGSGYPFTFGGGTKVEIK ?
Reply: 8

Ask: Consider the binder shown here: P12f4 (monoclonal antibody) (antibody, V domains shown, mAb with framework and constant regions of SYNAGIS) VH: QVTLRESGPALVKPTQTLTLTCTFSGFSLSTPGMSVGWIRQPPGKALEWLADIWWDGKKHYNPSLKDRLTISKDTSKNQVVLKVTNMDPADTATYYCARDMIFNFYFDVWGQGTTVTVSS VL: DIQMTQSPSTLSASVGDRVTITCSLSSRVGYMHWYQQKPGKAPKLLIYDTRGLPSGVPSRFSGSGSGTEFTLTISSLQPDDFATYYCFQGSGYPFTFGGGTKVEIK What is its recorded Fold Difference (Control IC50)?
Reply: 23

Ask: Consider the binder A1e9 (Fab fragment) (Fab, V domains shown, Fab; also called *Ale9) VH: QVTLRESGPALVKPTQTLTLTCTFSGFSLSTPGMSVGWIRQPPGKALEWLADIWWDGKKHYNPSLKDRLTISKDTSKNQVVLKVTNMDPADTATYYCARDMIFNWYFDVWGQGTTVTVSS VL: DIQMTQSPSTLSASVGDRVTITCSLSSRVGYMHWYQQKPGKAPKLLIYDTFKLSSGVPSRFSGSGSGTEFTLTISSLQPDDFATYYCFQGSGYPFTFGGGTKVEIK and give its measured Fold Difference (Control IC50).
Reply: 4

Ask: Need Fold Difference (Control IC50), item A13a11 (Fab fragment) (Fab, V domains shown, Fab) VH: QVTLRESGPALVKPTQTLTLTCTFSGFSLSTAGMSVGWIRQPPGKALEWLADIWWDDKKHYNPSLKDRLTISKDTSKNQVVLKVTNMDPADTATYYCARDMIFNWYFDVWGAGTTVTVSS VL: DIQMTQSPSTLSASVGDRVTITCSASSSVGYMHWYQQKPGKAPKLLIYDTYRHASGVPSRFSGSGSGTEFTLTISSLQPDDFATYYCFQGSGYPFTFGGGTKLEIK
Reply: 5
